src = patent US20250127904A1

- systemTested: biotinylated human siglec-2/CD22 protein-His-Avitag (Homo sapiens, UniProt P20273)
- procedureDetails: SPR binding to human siglec-2/CD22
- testConditions: steady-state analysis, read-out: Human CD22 affinity
- Procedure: The following proteins were used for CD22 ligand binding: biotinylated human siglec-2/CD22 protein-His-Avitag (Acro Biosystems, Cat #SI2-H82E3), biotinylated mouse siglec-2-Fc-Avi (in-house production), and recombinant cynomolgus siglec-2/CD22 His-tag (R&D systems, Cat #9864-SL-050). Prior to immobilization, CD22 proteins were treated with SialoExo (Genovis, Cat #G1-SM1-020) for 4 hours at 37° C. to remove native sialic acid residues. […]
Recorded measurements of Kd, one per entry

>  <substanceSmiles>
C#Cc1ccc(CC(=O)NC[C@@H](O)[C@@H](O)[C@@H]2O[C@@](OCCCCCCc3cn(CCOCCOC)nn3)(C(=O)O)C[C@H](O)[C@H]2NC(=O)CO)cc1

>  <systemTested>
biotinylated human siglec-2/CD22 protein-His-Avitag (Homo sapiens, UniProt P20273)

>  <experimentalEndpoint>
Kd

>  <result>
< 1000 nM

$$$$
>  <substanceSmiles>
O=C(O)CCCCCCCCC#Cc1ccc(CC(=O)NC[C@@H](O)[C@@H](O)[C@@H]2O[C@@](OCc3ccccc3)(C(=O)O)C[C@H](O)[C@H]2NC(=O)CO)cc1

>  <systemTested>
biotinylated human siglec-2/CD22 protein-His-Avitag (Homo sapiens, UniProt P20273)

>  <experimentalEndpoint>
Kd

>  <result>
1000 to 10000 nM

$$$$

Please indicate Kd recorded for C#CCOc1ccc(CC(=O)NC[C@@H](O)[C@@H](O)[C@@H]2O[C@@](OCc3ccccc3)(C(=O)O)C[C@H](O)[C@H]2NC(=O)CO)cc1
1000 to 10000 nM

* * *

- systemTested: recombinant cynomolgus siglec-2/CD22 His-tag (Macaca fascicularis)
- Sequence (A0A2K5WCZ6 entry or part of it): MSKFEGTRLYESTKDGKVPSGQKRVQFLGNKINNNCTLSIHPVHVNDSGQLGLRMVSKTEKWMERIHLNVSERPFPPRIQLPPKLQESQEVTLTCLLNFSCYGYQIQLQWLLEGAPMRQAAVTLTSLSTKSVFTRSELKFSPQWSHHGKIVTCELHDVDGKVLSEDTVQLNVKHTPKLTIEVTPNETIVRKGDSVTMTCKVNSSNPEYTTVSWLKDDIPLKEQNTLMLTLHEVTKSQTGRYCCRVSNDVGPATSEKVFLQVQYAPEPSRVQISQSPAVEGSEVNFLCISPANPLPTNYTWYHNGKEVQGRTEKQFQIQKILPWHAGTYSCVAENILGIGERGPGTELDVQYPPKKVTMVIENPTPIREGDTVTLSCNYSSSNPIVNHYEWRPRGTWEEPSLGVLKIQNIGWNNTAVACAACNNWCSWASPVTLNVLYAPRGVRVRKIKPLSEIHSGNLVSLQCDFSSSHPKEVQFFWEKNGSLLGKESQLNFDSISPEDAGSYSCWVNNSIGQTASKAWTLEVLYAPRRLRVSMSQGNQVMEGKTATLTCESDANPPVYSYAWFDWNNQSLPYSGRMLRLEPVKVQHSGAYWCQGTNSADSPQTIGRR
- procedureDetails: SPR binding to cynomolgus siglec-2/CD22
- testConditions: steady-state analysis, read-out: Cyno CD22 affinity
Recorded measurements of Kd, one per entry

>  <compound>
CCCNC(=O)CCOCCOCCOCCOCCn1cc(-c2ccc(CC(=O)NC[C@@H](O)[C@@H](O)[C@@H]3O[C@@](OCCCCCCn4cc(COCCOC)nn4)(C(=O)O)C[C@H](O)[C@H]3NC(=O)CO)cc2)nn1 [Compound 55]

>  <result>
1000 to 10000 nM

$$$$
>  <compound>
C#CCOCCOCCOCCOCCOCCNC(=O)N[C@H]1[C@H]([C@H](O)[C@H](O)CNC(=O)Cc2ccc(Cl)cc2)O[C@@](OCc2ccccc2)(C(=O)O)C[C@@H]1O [Compound 22]

>  <result>
1000 to 10000 nM

$$$$
>  <compound>
CCCCCCO[C@]1(C(=O)O)C[C@H](O)[C@@H](NC(=O)CO)[C@H]([C@H](O)[C@H](O)CNC(=O)Cc2ccc(-c3cn(CCOCCOCCOCCC(=O)NCC)nn3)cc2)O1 [Compound 16]

>  <result>
< 1000 nM

$$$$
>  <compound>
C#CCOCCOCCOCc1ccc(CC(=O)NC[C@@H](O)[C@@H](O)[C@@H]2O[C@@](OCc3ccccc3)(C(=O)O)C[C@H](O)[C@H]2NC(=O)CO)cc1 [Compound 9]

>  <result>
1000 to 10000 nM

$$$$

Report Kd from recombinant cynomolgus siglec-2/CD22 His-tag (Macaca fascicularis) testing of O=C(O)CCCCCCCCC#Cc1ccc(CC(=O)NC[C@@H](O)[C@@H](O)[C@@H]2O[C@@](OCc3ccccc3)(C(=O)O)C[C@H](O)[C@H]2NC(=O)CO)cc1 [Compound 14]
1000 to 10000 nM

* * *

- systemTested: biotinylated human siglec-2/CD22 protein-His-Avitag (Homo sapiens)
- Sequence (P20273 20-847): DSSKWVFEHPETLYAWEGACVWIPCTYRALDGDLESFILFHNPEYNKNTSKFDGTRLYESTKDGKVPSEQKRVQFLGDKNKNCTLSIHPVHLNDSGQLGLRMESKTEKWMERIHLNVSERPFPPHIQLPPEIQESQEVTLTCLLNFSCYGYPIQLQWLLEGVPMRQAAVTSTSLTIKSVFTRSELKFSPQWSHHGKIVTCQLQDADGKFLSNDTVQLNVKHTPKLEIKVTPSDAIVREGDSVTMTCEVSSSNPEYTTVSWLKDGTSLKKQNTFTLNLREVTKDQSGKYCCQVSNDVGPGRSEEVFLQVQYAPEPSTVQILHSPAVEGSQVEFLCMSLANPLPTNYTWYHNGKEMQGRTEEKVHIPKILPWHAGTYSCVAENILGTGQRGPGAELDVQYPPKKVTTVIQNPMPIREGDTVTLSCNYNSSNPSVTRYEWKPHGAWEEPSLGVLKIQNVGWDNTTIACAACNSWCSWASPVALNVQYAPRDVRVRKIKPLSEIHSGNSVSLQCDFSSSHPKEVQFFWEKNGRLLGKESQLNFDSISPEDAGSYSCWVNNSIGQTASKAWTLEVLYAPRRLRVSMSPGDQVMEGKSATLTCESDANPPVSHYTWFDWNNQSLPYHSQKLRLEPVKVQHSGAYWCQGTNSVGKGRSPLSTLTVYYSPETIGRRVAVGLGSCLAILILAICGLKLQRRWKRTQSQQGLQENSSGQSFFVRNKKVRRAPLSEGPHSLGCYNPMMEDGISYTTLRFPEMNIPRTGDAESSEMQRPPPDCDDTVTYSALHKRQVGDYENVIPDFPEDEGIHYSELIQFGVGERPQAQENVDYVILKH
- procedureDetails: SPR binding to human siglec-2/CD22
- testConditions: steady-state analysis, read-out: Human CD22 affinity
Recorded measurements of Kd, one per entry

>  <substanceSmiles>
C#CCOCCOCCOCc1ccc(CC(=O)NC[C@@H](O)[C@@H](O)[C@@H]2O[C@@](OCc3ccccc3)(C(=O)O)C[C@H](O)[C@H]2NC(=O)CO)cc1

>  <experimentalEndpoint>
Kd

>  <result>
1000 to 10000 nM

$$$$

Here is the next item to consider.
Please indicate Kd recorded for C#Cc1ccc(CC(=O)NC[C@@H](O)[C@@H](O)[C@@H]2O[C@@](OCc3ccc(O)cc3)(C(=O)O)C[C@H](O)[C@H]2NC(=O)CO)cc1
< 1000 nM

* * *

- systemTested: recombinant cynomolgus siglec-2/CD22 His-tag (Macaca fascicularis)
- procedureDetails: SPR binding to cynomolgus siglec-2/CD22
- testConditions: steady-state analysis, read-out: Cyno CD22 affinity
Recorded measurements of Kd, one per entry

Answered examples (5):
>  <compound>
C#CCOCCOCCOCCC(=O)N[C@H]1[C@H]([C@H](O)[C@H](O)CNC(=O)Cc2ccc(Cl)cc2)O[C@@](OCc2ccccc2)(C(=O)O)C[C@@H]1O [Compound 21]

>  <Kd>
1000 to 10000 nM

$$$$
>  <compound>
C#Cc1ccc(CC(=O)NC[C@@H](O)[C@@H](O)[C@@H]2O[C@@](OCCCCCCOC)(C(=O)O)C[C@H](O)[C@H]2NC(=O)CO)cc1 [Compound 11]

>  <Kd>
< 1000 nM

$$$$
>  <compound>
CCCNC(=O)CCOCCOCCOCCn1cc(CO[C@H]2C[C@](OCc3ccccc3)(C(=O)O)O[C@@H]([C@H](O)[C@H](O)CNC(=O)Cc3ccc(Cl)cc3)[C@@H]2NC(=O)CO)nn1 [Compound 19]

>  <Kd>
1000 to 10000 nM

$$$$
>  <compound>
C#CCCCCCCCCOc1ccc(CC(=O)NC[C@@H](O)[C@@H](O)[C@@H]2O[C@@](OCc3ccccc3)(C(=O)O)C[C@H](O)[C@H]2NC(=O)CO)cc1 [Compound 7]

>  <Kd>
1000 to 10000 nM

$$$$
>  <compound>
C#Cc1ccc(CC(=O)NC[C@@H](O)[C@@H](O)[C@@H]2O[C@@](OCc3ccc(O)cc3)(C(=O)O)C[C@H](O)[C@H]2NC(=O)CO)cc1 [Compound 3]

>  <Kd>
< 1000 nM

$$$$

Please indicate Kd recorded for C#CCOCCOCCOc1ccc(CC(=O)NC[C@@H](O)[C@@H](O)[C@@H]2O[C@@](OCc3ccccc3)(C(=O)O)C[C@H](O)[C@H]2NC(=O)CO)cc1 [Compound 15]
1000 to 10000 nM

Please indicate Kd recorded for C#Cc1ccc(CC(=O)NC[C@@H](O)[C@@H](O)[C@@H]2O[C@@](OCCOCCOCCOC)(C(=O)O)C[C@H](O)[C@H]2NC(=O)CO)cc1 [Compound 25]
1000 to 10000 nM

Please indicate Kd recorded for C#Cc1ccc(CC(=O)NC[C@@H](O)[C@@H](O)[C@@H]2O[C@@](OCCCCCCn3cc(COCCOC)nn3)(C(=O)O)C[C@H](O)[C@H]2NC(=O)CO)cc1 [Compound 28]
< 1000 nM

Please indicate Kd recorded for C#CCO[C@H]1C[C@](OCCCCCC(=O)O)(C(=O)O)O[C@@H]([C@H](O)[C@H](O)CNC(=O)Cc2ccc(Cl)cc2)[C@@H]1NC(=O)CO [Compound 20]
1000 to 10000 nM
